As shown below, each of these compounds has a reported AUC(0-t) value.
- measurement.notes: AUCt in CD1 mouse at 10 mg/kg, po by UPLC analysis
- Type: ADME, organism-based
- applied.conditions: in vivo
Field: numeric (µM·h). Do not append units.

N#Cc1cc(F)cc(Oc2ccc(S(=O)(=O)CF)c3c2CC(F)(F)[C@H]3O)c1
9.46

IN: # input compound: O=S(=O)(c1ccc(Oc2cncc(Cl)c2)c2c1[C@H](O)C(F)(F)C2)C(F)F ; wanted: its AUC(0-t)
OUT: 5.44

IN: Any idea what its AUC(0-t) is? The compound is CS(=O)(=O)c1ccc(Oc2cc(F)cc(C#N)c2)c2c1[C@H](O)C(F)(F)C2
OUT: 16.4

IN: I'd like to know its AUC(0-t). The compound in question is N#Cc1cc(F)cc(Oc2ccc3c(c2C(F)F)[C@@H](O)C(F)(F)S3(=O)=O)c1
OUT: 6.1

IN: Any idea what AUC(0-t) was measured for N#Cc1cc(F)cc(Oc2ccc(S(=O)(=O)C(F)F)c3c2CC(F)(F)[C@H]3O)c1 ?
OUT: 7.3
